Endpoint summary: pKi, system: Coagulation factor VII (Homo sapiens), multiple sources combined.
Entry type: numeric. Quantity: pKi, the -log10 of concentration in molar units.

Find the measured pKi of N=C(N)c1ccc2[nH]c(-c3cc(C(CC(=O)O)C(=O)O)cc(-c4cc(Cl)cc(Br)c4O)c3O)nc2c1 (centres undefined) with Coagulation factor VII (Homo sapiens) as test system.
8.05

Find the measured pKi of CN(C)CCNC(=O)NCc1cccc(-c2cc(CC(=O)O)cc(-c3cc4[nH]c(N)ccc-4n3)c2O)c1 with Coagulation factor VII (Homo sapiens) as test system.
5.85

Find the measured pKi of CC(NC(=O)CNC(=O)Nc1ccc(C(=N)N)cc1)c1cccc(OCc2ccccc2)c1 (centres undefined) with Coagulation factor VII (Homo sapiens) as test system.
6.59

Find the measured pKi of C[C@]1(c2ccccc2)C[C@@H](c2cccc(-c3ccc(NS(C)(=O)=O)cc3C(=O)O)c2)Nc2ccc(C(=N)N)cc21 (racemic) with Coagulation factor VII (Homo sapiens) as test system.
6.63
